Provide the recorded GI50 for the entries that follow.
test system: SNB-19; assay: NCI tumour cell line growth inhibition, 48 h
Activity calls are given as the source filed them. Cut-off read from the data, not from the text of the source: active = GI50 up to about 1.1 µM and inactive = higher.

Solved cases (5 shown):
COMPOUND	REPORTED
CCOP(=O)(Nc1ccccc1P(=O)(OCC)OCC)OCC	> 100 µM (inactive)
N#Cc1cccc2c1Nc1ccccc1S2	37.8 µM (inactive)
COc1cc(/C=N/Nc2nnc3c4ccccc4c4ncccc4c3n2)cc(OC)c1OC	6.71 µM (inactive)
O=C(NCCCCl)c1c(O)c2ccccc2[nH]c1=O	> 100 µM (inactive)
COCOc1ccc(C(=O)C(C)c2ccc(OCOC)cc2OCOC)c(O)c1 (stereo not given)	> 100 µM (inactive)

Each compound below has a reported value. Please supply its GI50.
1. COc1ccc(C(=O)C2CCC(C(=O)O)C2)cc1 (stereo not given)
2. COC(=O)c1c(C)cccc1C1CN=NC12Cc1ccccc1C2=O (stereo not given)
3. O=C(O)c1ccccc1C(=O)c1ccco1
4. COc1ccc2nc3cc(Cl)ccc3c(NCCC[N+](C)(C)CCCCCCCCCCCCCCCC[N+](C)(C)CCCNc3c4ccc(Cl)cc4nc4ccc(OC)cc34)c2c1

Completion:
1. > 100 µM (inactive)
2. > 100 µM (inactive)
3. > 100 µM (inactive)
4. 2.69 µM (inactive)

For the 4 compounds below, give their GI50 values.
1. Cc1nn2c(=O)n(-c3cccc(-n4nnc5c(-c6ccccc6)c(C)nn5c4=O)c3C)nnc2c1-c1ccccc1
2. CCCCOP(C)(=O)C(NC(=O)OCC)(C(F)(F)F)C(F)(F)F (stereo not given)
3. Cc1[nH]c2ccccc2c1/C=N/c1ccc(Oc2ccccc2)cc1
4. COc1ccc2c(c1)C1=NCCN(C)c3ccc([N+](=O)[O-])c(c31)N2

Completion:
1. > 100 µM (inactive)
2. > 100 µM (inactive)
3. 18 µM (inactive)
4. 0.652 µM (active)

I'm hoping you can list GI50 for every compound here, please.
1. N=C(N)c1ccc(OCCCCCOc2ccc(C(=N)N)cc2)cc1
2. c1cc2c(cc1[C@@H]1OC[C@@H]3[C@H]1CO[C@H]3c1ccc3c(c1)OCO3)OCO2
3. Cc1c(OCc2ccccc2)c(=O)ccn1CCc1c[nH]c2ccccc12
4. O=C(Cc1ccccc1)NN1C(=O)C(Cl)C1c1cccc([N+](=O)[O-])c1 (stereo not given)
5. CCn1c2c(n(CC)c1=S)-c1c(n(CC)c(=S)n1CC)SSSS2
6. O=C(NCc1ccc(Cl)cc1)c1cc2sccc2nc1C(F)(F)F
7. NN/C(=N\S(=O)(=O)c1cc2ccccc2s1)Nc1ccc(Cl)cc1

Completion:
1: 15.7 µM (inactive); 2: > 100 µM (inactive); 3: 32.7 µM (inactive); 4: > 92.9 µM (inactive); 5: > 84.1 µM (inactive); 6: 22.5 µM (inactive); 7: 27 µM (inactive)

Measured values drawn from ChEMBL document CHEMBL1201862 for this set.
